- Test system: SF-295 CNS
- test.name: NCI tumour cell line growth inhibition, 48 h; in the data active = GI50 below about 0.43 µM; inactive = the rest
// one of active, inactive, no free text

molecule	category
Oc1cccc2c1NCCC2	active
COc1cc(C(=O)c2cc(C)c3[nH]c4ccc(O)cc4c3c2C)cc(OC)c1OC	active
COc1cc(-c2nn(-c3cccc(NC(=O)CCN4CCN(Cc5ccccc5)CC4)c3)cc2-c2ccncc2)ccc1Cl	inactive
O=C1C(OCCOc2ccccc2)=C(OCCOc2ccccc2)C(=O)c2ccccc21	inactive
Cc1ccc(C2C3Cc4ccccc4C3=NN2c2ccc(S(=O)(=O)/N=c3\scc(-c4ccccc4)n3-c3ccccc3)cc2)cc1 (stereo unspecified)	inactive

Alright, here's another molecule for you.
Hi, sorry to bother you, what did the test record for FC(F)(F)c1cccc(-c2nn3ncccc3c2-c2ccnc(Nc3ccc4c(c3)OCCO4)n2)c1 ?
inactive

---

- System: RXF 393 renal
- test.name: NCI tumour cell line growth inhibition, 48 h
measure.name: TGI (µM)
Number in µM, nothing else.

compound	measurement.target	output.unit	TGI
COC(=O)c1cc(-c2ccc(OC)c(OC)c2)[nH]c1N/N=C/c1c(Cl)cccc1Cl	RXF 393 renal	µM	0.933

Look at this compound and give its reported TGI. COc1cc(C(=O)c2cc(C)c3[nH]c4ccc(O)cc4c3c2C)cc(OC)c1OC
3.11

Look at this compound and give its reported TGI. Cn1ccnc1Oc1ccc(Cl)cc1
37.1

Look at this compound and give its reported TGI. O=C1c2ccccc2N2OC3(N4CCCC4)CCCCC3C12c1ccccc1 (stereo unspecified)
39.4

---

- Tested on: SF-268 CNS
- test.name: NCI tumour cell line growth inhibition, 48 h
measure.name: TGI

molecule	result
CCC1C(c2ccccc2O)c2cc3c(cc2OC1N1CCOCC1)OCO3 (configuration not stated)	31.8 µM

Which TGI is reported with SF-268 CNS for this entry: CCOC(=O)c1cc2c(cc1Cl)SC(=Nc1ccccc1)N(S(=O)(=O)c1ccc(Br)s1)S2(=O)=O ?
46.5 µM

---

- System: MALME-3M melanoma
- test.name: NCI tumour cell line growth inhibition, 48 h
Listed next: entries and their corresponding GI50.

Consider the reported GI50 for these molecules:
COC(=O)c1cc(-c2ccc(OC)c(OC)c2)[nH]c1N/N=C/c1c(Cl)cccc1Cl 0.86 µM
COc1ccc(/C=C(\C)[N+](=O)[O-])cc1OC 1.4 µM
Fc1ccc(/C=N/n2c(-c3ccc(F)c(Cl)c3)n[nH]c2=S)cc1 18.3 µM
COc1cccc(Oc2ccccc2NC(=O)CNC(=O)c2cccc3ccccc23)c1 16.9 µM

Now examine the next entry.
Look at this molecule and give its reported GI50. COc1cc2cc(Oc3ccc(NC(=O)c4ccc(Cl)c(Cl)c4)cc3)c(C)nc2cc1OC
> 100 µM

---

- Test system: SNB-75 CNS
- test.name: NCI tumour cell line growth inhibition, 48 h
measure.name: TGI (µM)
Number in µM, nothing else.

compound	output.unit	numeric.result
CN(C)CCNC(=O)c1cccc2c(NC(CCC(N)=O)C(=O)O)c3ccccc3nc12 (stereo unspecified)	µM	30.8
O=C(c1ccccc1)c1c(CC(O)c2ccncc2)n(C(=O)c2ccccc2)c2ccccc12 (stereo unspecified)	µM	41.4
O=C(NNS(=O)(=O)c1ccc(Cl)cc1Cl)c1cccnc1Nc1ccc(Cl)cc1	µM	84.4

Which TGI is reported with SNB-75 CNS for this entry: COc1ccc2c(c1)C(=O)c1c-2c(OCCN(C)C)nc2ccccc12 ?
21.6

Which TGI is reported with SNB-75 CNS for this entry: Clc1ccc2oc(CCc3ccccc3)nc2c1 ?
62.8

Which TGI is reported with SNB-75 CNS for this entry: CN1CCc2nc3sc(C(N)=O)c(N)c3c(-c3cccs3)c2C1 ?
8.03

Which TGI is reported with SNB-75 CNS for this entry: COc1cccc(C(=O)C#Cc2cnc(OC)nc2OC)c1 ?
5.45

Which TGI is reported with SNB-75 CNS for this entry: C=C(C)[C@@H]1CC[C@]2(C(=O)OC)CC[C@]3(C)[C@H](CC[C@@H]4[C@@]5(C)CC[C@H](O)C(C)(C)[C@@H]5CC[C@]43C)[C@@H]12 ?
59

---

Listed next: entries and their corresponding TGI.
- Tested on: NCI-H522 lung
- test.name: NCI tumour cell line growth inhibition, 48 h
Number in µM, nothing else.

Consider the reported TGI for these molecules:
molecule	output.unit	TGI
COc1ccc2c(-c3ccnc(Nc4cccc(OC(F)(F)F)c4)n3)cnn2n1	µM	1.77
CN(C)CCNC(=O)c1cccc2c(NC(CCC(N)=O)C(=O)O)c3ccccc3nc12 (stereo not given)	µM	22.3

Which TGI is reported with NCI-H522 lung for this entry: CCN1C(=O)N(CC)C2C1NN=c1s/c(=C\c3ccc(F)cc3)c(=O)n12 (stereo not given) ?
0.903

---

- Tested on: HOP-62 NSCLC
- test.name: NCI tumour cell line growth inhibition, 48 h
Listed next: entries and their corresponding GI50.

Consider the reported GI50 for these compounds:
compound	GI50
CC(C)C[C@H](NC(=O)CCn1ccc2ccccc2c1=O)B(O)O	4.51 µM
COc1cc2c(cc1F)C(c1ccccc1Cl)=Nc1c(n[nH]c1C)N2	1.31 µM
O=C1C(OCCOc2ccccc2)=C(OCCOc2ccccc2)C(=O)c2ccccc21	9.26 µM
COc1cc(/C=C/c2ccc3c(Br)cc(Br)c(O)c3n2)ccc1O	1.51 µM
FC(F)(F)c1cccc(-c2nn3ncccc3c2-c2ccnc(Nc3ccc4c(c3)OCCO4)n2)c1	> 25 µM
COc1ccc(Nc2ccnc(N3CCN(c4ccnc5cc(Cl)ccc45)CC3)n2)cc1	1.27 µM

Now examine the next entry.
Look at this compound and give its reported GI50. Nc1n[nH]c2ccc([C@@H]3Nc4cc5c(cc4[C@H]4C6CCC(C6)[C@@H]34)C(=O)NC5)cc12 (stereo partly specified)
0.513 µM

---

- Test system: HCT-15 colon
- test.name: NCI tumour cell line growth inhibition, 48 h
measure.name: TGI

compound	measure.name	result
O=Nc1c(-c2c(O)[nH]c3ncccc23)[nH]c2ccccc12	TGI	> 100 µM
CN(C)CCc1c2c(nc3ccccc13)C(=O)c1cccnc1C2=O	TGI	0.927 µM
c1ccc2c(c1)CCc1c-2n[nH]c1-c1[nH]nc2c1CCc1ccccc1-2	TGI	> 100 µM
COc1ccc2c3c1O[C@H](c1ccc(O)cc1)[C@H]3[N+](C)(C)CC2	TGI	> 100 µM

Which TGI is reported with HCT-15 colon for this entry: O=c1[nH]c2nc3ccccc3c(=O)n2/c1=C/c1ccco1 ?
> 100 µM

Which TGI is reported with HCT-15 colon for this entry: C1CSCCSCCCSCCSCCCSCCSCCCSCCSC1 ?
> 100 µM

Which TGI is reported with HCT-15 colon for this entry: O=C1C(OCCOc2ccccc2)=C(OCCOc2ccccc2)C(=O)c2ccccc21 ?
> 100 µM

Which TGI is reported with HCT-15 colon for this entry: C[C@@H]1O[C@@H](O[C@@H]2[C@@H](O)[C@H](OCCc3ccc(O)c(O)c3)O[C@H](CO)[C@H]2OC(=O)/C=C/c2ccc(O)c(O)c2)[C@H](O)[C@H](OC2OC[C@](O)(CO)[C@H]2O)[C@H]1O (stereo partly drawn) ?
> 100 µM

Which TGI is reported with HCT-15 colon for this entry: c1cc(N2CCN(c3ccc(C4=NCCCN4)cc3)CC2)ccc1C1=NCCCN1 ?
> 100 µM

Which TGI is reported with HCT-15 colon for this entry: CCN(CC)c1nnc(CCCCCCCCc2nnc(N(CC)CC)o2)o1 ?
> 100 µM

---

- System: SK-MEL-2 melanoma
- test.name: NCI tumour cell line growth inhibition, 48 h; in the data active = GI50 below about 0.43 µM; inactive = the rest
// one of YES for active, NO for inactive, no free text

Example results:
COc1cc(C(=O)c2cc(C)c3[nH]c4ccc(O)cc4c3c2C)cc(OC)c1OC NO
COc1cc2cc(Oc3ccc(NC(=O)c4ccc(Cl)c(Cl)c4)cc3)c(C)nc2cc1OC NO
COc1cc(/C=C/c2ccc3c(Br)cc(Br)c(O)c3n2)ccc1O NO
COc1cc(C(=O)Nc2cc(O)c(CC=C(C)C)c(O)c2)cc2c1O[C@]1(C)CC[C@@H](O)C(C)(C)[C@H]1C2 YES
COc1cc2c(cc1F)C(c1ccccc1Cl)=Nc1c(n[nH]c1C)N2 NO
Oc1c(-c2cc(C(F)(F)F)[nH]n2)cc(Cl)c(OCc2ccc(Cl)cc2)c1-c1ccc(Cl)c(C(F)(F)F)c1 YES

Alright, here's another molecule for you.
Hi, sorry to bother you, what did the test record for CCc1c(C)nc2sc3c(N)ncnc3c2c1C ?
NO

---

- Test system: SN12C renal
- test.name: NCI tumour cell line growth inhibition, 48 h; in the data active = GI50 below about 0.43 µM; inactive = the rest
// one of 1.0 = active, 0.0 = inactive, no free text

compound	measurement.target	category
CN1CCN(CCCCCN=c2cc3c(=O)n(CCCCCN4CCN(C)CC4)c(=O)c4c(NCCCCCN5CCN(C)CC5)cc5c(O)n(CCCCCN6CCN(C)CC6)c(=O)c2c5c4-3)CC1	SN12C renal	0.0
Cc1[nH]c(-c2cc(N)ccc2Cl)c2c1C(=O)CCCC2	SN12C renal	0.0
COc1cccc(Oc2ccccc2NC(=O)CNC(=O)c2cccc3ccccc23)c1	SN12C renal	0.0

Alright, here's another compound for you.
Hi, sorry to bother you, what did the test record for COc1ccc(/C=C(\C)[N+](=O)[O-])cc1OC ?
0.0

The reported measurements were obtained from PubChem BioAssay (NCI).
